Tested on: human red blood cells (RBCs)
Assay Method Text: Hemolysis assay
Assay type: cell-based
Assay Context: red cells of human, 1 h, 32
Where a SMILES comes first, the peptide text is derived from it.
Value Kind: Percentage of hemolysis at 32 μg/mL (%)
A number alone suffices; assume %.

Lookup: Name the recorded Percentage of hemolysis at 32 μg/mL of the item CC[C@H](C)[C@H](NC(=O)[C@H](CCCCN)NC(=O)[C@H](CCCCN)NC(=O)[C@H](C)NC(=O)[C@@H](NC(=O)[C@H](CC(=O)O)NC(=O)[C@H](Cc1ccccc1)NC(=O)[C@H](CC(C)C)NC(=O)CN)[C@@H](C)CC)C(=O)N[C@@H](C)C(=O)N[C@@H](CCC(=O)O)C(=O)N[C@@H](CO)C(=O)N[C@@H](Cc1ccccc1)C(N)=O [Peptide I6A] (H-GLFDIAKKIAESF-NH2) in your answer.
Found: 0.0
